# Test system: NCI-H196 complex spheroid viability
# experiment-summary: Anticancer human tumor NCI-H196 cell line growth inhibition [LSD1];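 further: spheroids exposed to agents for 7 days before readout; 100% = DMSO vehicle control viability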
# applied-conditions: second compound 3.16 µM; first compound 0.316 µM; hits give low values
Known viability, T/C of a selection of molecules
Provide the reading as a plain figure in %.

The examples below pair each entry with its known result.
Which viability, T/C reading was recorded for the molecule CC1COCCN1c1cc(C2(S(C)(=N)=O)CC2)nc(-c2ccnc3[nH]ccc23)n1 (centres undefined) + NC1CCC(NC2CC2c2ccccc2)CC1 ?
93.7

Which viability, T/C reading was recorded for the molecule CC(C)c1c(-c2ccccc2)nc2c(C#N)c[nH]n2c1=O + NC1CC1c1ccc(-c2cccc(O)c2)cc1 ?
95.3

Which viability, T/C reading was recorded for the molecule COc1cc(Nc2ncc3c(n2)-c2ccc(Cl)cc2C(c2c(F)cccc2OC)=NC3)ccc1C(=O)O + NC1CC1c1ccc(-c2cccc(O)c2)cc1 ?
124

Which viability, T/C reading was recorded for the molecule COc1cc(Nc2ncc3c(n2)-c2ccc(Cl)cc2C(c2c(F)cccc2OC)=NC3)ccc1C(=O)O + NC1CCC(NC2CC2c2ccccc2)CC1 ?
128

Which viability, T/C reading was recorded for the molecule Nc1ncn(C2CC(O)C(CO)O2)c(=O)n1 (centres undefined) + NC1CCC(NC2CC2c2ccccc2)CC1 ?
87.1

Which viability, T/C reading was recorded for the molecule CC(C)c1c(-c2ccccc2)nc2c(C#N)c[nH]n2c1=O + NC1CCC(NC2CC2c2ccccc2)CC1 ?
98.5

Which viability, T/C reading was recorded for the molecule O=C(c1cc(Cc2n[nH]c(=O)c3ccccc23)ccc1F)N1CCN(C(=O)C2CC2)CC1 + NC1CCC(NC2CC2c2ccccc2)CC1 ?
88

Which viability, T/C reading was recorded for the molecule O=C(c1cc(Cc2n[nH]c(=O)c3ccccc23)ccc1F)N1CCN(C(=O)C2CC2)CC1 + NC1CC1c1ccc(-c2cccc(O)c2)cc1 ?
99.3

---
Which viability, T/C reading was recorded for the molecule O=C(C=Cn1cnc(-c2cc(C(F)(F)F)cc(C(F)(F)F)c2)n1)NNc1cnccn1 + NC1CCC(NC2CC2c2ccccc2)CC1 ?
13.9

* * *

Known viability, T/C of a selection of compounds
# System: NCI-H196 complex spheroid viability
# experiment-summary: Anticancer human tumor NCI-H196 cell line growth inhibition [LSD1];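 further: spheroids exposed to agents for 7 days before readout; 100% = DMSO vehicle control viability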
# applied-conditions: second compound 0.316 µM; first compound 0.01 µM; hits give low values

Which viability, T/C reading was recorded for the compound COc1cc(Nc2ncc3c(n2)-c2ccc(Cl)cc2C(c2c(F)cccc2OC)=NC3)ccc1C(=O)O + NC1CCC(NC2CC2c2ccccc2)CC1 ?
103%

Which viability, T/C reading was recorded for the compound Nc1ncn(C2CC(O)C(CO)O2)c(=O)n1 (configuration not stated) + NC1CC1c1ccc(-c2cccc(O)c2)cc1 ?
95.6%

Which viability, T/C reading was recorded for the compound Cn1ncnc1C1c2n[nH]c(=O)c3cc(F)cc(c23)NC1c1ccc(F)cc1 (configuration not stated) + NC1CC1c1ccc(-c2cccc(O)c2)cc1 ?
102%

Which viability, T/C reading was recorded for the compound CC(C)CC(NC(=O)CNC(=O)c1cc(Cl)ccc1Cl)B1OC(=O)CC(CC(=O)O)(C(=O)O)O1 (configuration not stated) + NC1CC1c1ccc(-c2cccc(O)c2)cc1 ?
59.9%

Which viability, T/C reading was recorded for the compound CC[C@@]1(O)C(=O)OCc2c1cc1n(c2=O)Cc2cc3c(CN(C)C)c(O)ccc3nc2-1 + NC1CCC(NC2CC2c2ccccc2)CC1 ?
118%

Which viability, T/C reading was recorded for the compound O=C(C=Cn1cnc(-c2cc(C(F)(F)F)cc(C(F)(F)F)c2)n1)NNc1cnccn1 + NC1CCC(NC2CC2c2ccccc2)CC1 ?
25.9%

Which viability, T/C reading was recorded for the compound COc1cc(Nc2ncc3c(n2)-c2ccc(Cl)cc2C(c2c(F)cccc2OC)=NC3)ccc1C(=O)O + NC1CC1c1ccc(-c2cccc(O)c2)cc1 ?
97.6%

The measured values listed here are drawn from PubChem BioAssay AID1918958.
